Origin of the recorded values: the kinase profiling compilation of Christmann-Franck et al. (2016)

# tested_on: MST4 (human)
# test: radiometric filter-binding kinase assay, Kinase HotSpot
# experimental_setup: compound 0.5 µM; ATP 10 µM
observed_property: residual activity

[[record]]
smiles_structure = "Nc1nnc2[nH]c3ccccc3nc1-2"
readout_value = "91.2%"

[[record]]
smiles_structure = "O=C1NC(=O)/C(=C\\c2ccc3nccnc3c2)S1"
readout_value = "91%"

[[record]]
smiles_structure = "O=C(CCCc1ccc(-c2ccccc2F)cc1)Nc1ccc(O)cc1"
readout_value = "91.5%"

[[record]]
smiles_structure = "CN([C@@H](Cc1ccc(OS(=O)(=O)c2cccc3cnccc23)cc1)C(=O)N1CCN(c2ccccc2)CC1)S(=O)(=O)c1cccc2cnccc12"
readout_value = "109%"

[[record]]
smiles_structure = "O=C(Nc1cccc(Nc2cc(Nc3cccc(C(F)(F)F)c3)ncn2)c1)C1CC1"
readout_value = "98.9%"

[[record]]
smiles_structure = "O=C1NC(=O)C(c2cn(CCCO)c3ncccc23)=C1c1cnccn1"
readout_value = "78.7%"

[[record]]
smiles_structure = "CC(=O)O/N=C1\\C(=C2\\C(=O)Nc3cc(Br)ccc32)Nc2ccccc21"
readout_value = "78.7%"

[[record]]
smiles_structure = "Oc1ccc(Nc2nc(-c3ccc(Cl)cc3)cs2)cc1"
readout_value = "105%"

[[record]]
smiles_structure = "CC(C)c1nn(-c2c(Cl)cccc2Cl)c2nc(Cc3ccc(OCCO)cc3)nc(O)c12"
readout_value = "46.8%"

[[record]]
smiles_structure = "O=C1Cc2c([nH]c3ccc(Br)cc23)-c2ccccc2N1"
readout_value = "108%"

[[record]]
smiles_structure = "Cn1cnc2cc3c(Nc4cccc(Br)c4)ncnc3cc21"
readout_value = "94.3%"

[[record]]
smiles_structure = "O=C1NC(=O)C(c2c[nH]c3ccccc23)=C1c1c[nH]c2ccccc12"
readout_value = "59.2%"

[[record]]
smiles_structure = "Cc1nc2cc3nc(-c4cccs4)cnc3cc2n1C"
readout_value = "99.3%"

[[record]]
smiles_structure = "COc1ccc(CNC(=O)Nc2ncc([N+](=O)[O-])s2)cc1"
readout_value = "113%"

[[record]]
smiles_structure = "COc1ccc(OC)c2c(=S)c3ccccc3[nH]c12"
readout_value = "90.8%"

[[record]]
smiles_structure = "Nc1nccc(-c2c(-c3ccc(F)cc3)ncn2C2CCNCC2)n1"
readout_value = "98.4%"


* * *

# tested_on: FLT3 (human)
# test: radiometric filter-binding kinase assay, Kinase HotSpot
# experimental_setup: compound 0.5 µM; ATP 10 µM
Measured residual activity, listed per entry for reference.
observed_property: residual activity (%)

[[record]]
smiles_structure = "Oc1ccc(Nc2nc(-c3ccc(Cl)cc3)cs2)cc1"
observed_property = "residual activity"
readout_value = 99

[[record]]
smiles_structure = "Cn1cnc2cc3c(Nc4cccc(Br)c4)ncnc3cc21"
observed_property = "residual activity"
readout_value = 33.4

[[record]]
smiles_structure = "Nc1nnc2[nH]c3ccccc3nc1-2"
observed_property = "residual activity"
readout_value = 75.9

[[record]]
smiles_structure = "COc1ccc(OC)c2c(=S)c3ccccc3[nH]c12"
observed_property = "residual activity"
readout_value = 71

[[record]]
smiles_structure = "CN([C@@H](Cc1ccc(OS(=O)(=O)c2cccc3cnccc23)cc1)C(=O)N1CCN(c2ccccc2)CC1)S(=O)(=O)c1cccc2cnccc12"
observed_property = "residual activity"
readout_value = 103

[[record]]
smiles_structure = "Cc1nc2cc3nc(-c4cccs4)cnc3cc2n1C"
observed_property = "residual activity"
readout_value = 27.5

